biological target: α-glucosidase (Saccharomyces cerevisiae); construct: purchased Shanghai Yuanye Biotechnology Co., Shanghai, China Lot No. M23HS178879 (catalogue number not given); test: CD spectroscopy, secondary structure of α-glucosidase (BeStSel); conditions: molar ratio 40:1, α-glucosidase 4 μM; free enzyme 14.4
Sequence (P53341 whole entry): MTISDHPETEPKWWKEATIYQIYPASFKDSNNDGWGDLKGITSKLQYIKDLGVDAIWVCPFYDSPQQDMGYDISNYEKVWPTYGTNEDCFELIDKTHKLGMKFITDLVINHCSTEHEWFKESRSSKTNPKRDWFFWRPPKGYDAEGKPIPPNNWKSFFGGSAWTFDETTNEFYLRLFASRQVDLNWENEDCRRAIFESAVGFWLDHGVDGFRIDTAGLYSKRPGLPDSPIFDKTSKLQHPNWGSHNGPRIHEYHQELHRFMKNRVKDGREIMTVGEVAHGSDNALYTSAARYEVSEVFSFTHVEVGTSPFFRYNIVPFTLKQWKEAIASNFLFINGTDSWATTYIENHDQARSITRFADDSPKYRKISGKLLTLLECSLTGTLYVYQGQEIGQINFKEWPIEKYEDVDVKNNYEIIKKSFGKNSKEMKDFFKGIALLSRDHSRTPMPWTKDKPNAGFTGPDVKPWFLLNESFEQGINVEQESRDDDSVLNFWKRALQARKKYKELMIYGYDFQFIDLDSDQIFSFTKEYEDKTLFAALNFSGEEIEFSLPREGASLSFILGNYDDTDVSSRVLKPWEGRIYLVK
Please respond with reported α-helix for every item in the list.
Only the number, expressed in %, is required.

*Q* Value lookup for α-helix; key = "O=c1c(O)c(-c2ccc(O)c(O)c2)oc2cc(O)cc(O)c12"
*A* 11.1

*Q* Please look up its α-helix: "O=c1c(O[C@@H]2O[C@H](CO)[C@@H](O)[C@H](O)[C@H]2O)c(-c2ccc(O)c(O)c2)oc2cc(O)cc(O)c12"
*A* 12.5

*Q* Give the measured α-helix of "O=C1C[C@@H](c2ccc(O)cc2)Oc2cc(O)cc(O)c21" .
*A* 15.3

*Q* I would be grateful if you could share the reported α-helix for "O=C(/C=C/c1ccc(O)cc1)c1ccc(O)cc1O" .
*A* 14.1

*Q* Find the recorded α-helix belonging to COc1ccc(C2COc3cc(O)ccc3C2)c(O)c1OC (centres unmarked) and report it.
*A* 17.4

*Q* I am curious: what α-helix value has been reported for "O=C1C[C@@H](c2ccc(O)cc2)Oc2cc(O)ccc21" ?
*A* 8.00

*Q* I'd like to know its α-helix. The compound in question is COc1cc(-c2oc3cc(O)cc(O)c3c(=O)c2OC2OC(CO)C(O)C(O)C2O)ccc1O (centres unmarked) [C14, isorhamnetin-3-O-glucoside]
*A* 7.80

*Q* Look up α-helix for this compound: O=C1c2ccc(O)cc2OCC1c1ccc(O)cc1 (centres unmarked) [C28, dihydrodaidzein]
*A* 10.9
